# Test system: human maximum recommended daily dose, FDA database
# ASSAY SUMMARY: DSSTox (FDAMDD) FDA Maximum (Recommended) Daily Dose Database
# SETUP CONDITIONS: TherapeuticCategory: acne treatment; hits give low values
METRIC NAME: maximum recommended daily dose (mmol/kg-bw/day)

**Query** For the compound shown here, `CC(=O)[C@@]12O[C@](C)(c3ccccc3)O[C@@H]1C[C@H]1[C@@H]3CCC4=CC(=O)CC[C@]4(C)[C@H]3CC[C@@]12C` , give the reported maximum recommended daily dose (mmol/kg-bw/day).
**Result** 0.00557

----------
# System: human maximum recommended daily dose, FDA database
# ASSAY SUMMARY: DSSTox (FDAMDD) FDA Maximum (Recommended) Daily Dose Database
# SETUP CONDITIONS: TherapeuticCategory: calcium regulator; hits give low values
METRIC NAME: maximum recommended daily dose (mmol/kg-bw/day)
# output: bare number, no unit

**Query** For the compound shown here, `C=C1/C(=C\C=C2/CCC[C@]3(C)[C@@H]([C@H](C)CCCC(C)(C)O)CC[C@@H]23)C[C@@H](O)C[C@@H]1O` , give the reported maximum recommended daily dose (mmol/kg-bw/day).
**Result** 1.2e-07

**Query** Let us now turn to `C=C1CC[C@H](O)C/C1=C/C=C1\CCC[C@]2(C)[C@@H]([C@H](C)CCCC(C)(C)O)CC[C@@H]12`
**Result** 8.31e-06

**Query** Let us now turn to `CC(O)(P(=O)(O)O)P(=O)(O)O`
**Result** 0.0971

----------
# System: human maximum recommended daily dose, FDA database
# ASSAY SUMMARY: DSSTox (FDAMDD) FDA Maximum (Recommended) Daily Dose Database
# SETUP CONDITIONS: TherapeuticCategory: anxiolytic; hits give low values
Flag rule - maximum recommended daily dose (mmol/kg-bw/day) less than 0.008 flags condition met; the remaining entries get condition not met.

**Query** Take the compound `CN=C1CN(O)C(c2ccccc2)=c2cc(Cl)ccc2=N1` and say whether its maximum recommended daily dose (mmol/kg-bw/day) is less than 0.008.
**Result** condition met

**Query** Let us now turn to CCCCNC(=O)OCC(C)(CCC)COC(N)=O (stereo unspecified)
**Result** condition not met

**Query** Let us now turn to `CCc1cc2c(s1)N(C)C(=O)CN=C2c1ccccc1Cl`
**Result** condition met

**Query** Let us now turn to `O=C1CN=C(c2ccccc2)c2cc(Cl)ccc2N1CC(F)(F)F`
**Result** condition met

**Query** Let us now turn to `CCCC(C)(COC(N)=O)COC(N)=O`
**Result** condition not met

**Query** Let us now turn to O=C1Nc2ccc(Cl)cc2C(c2ccccc2)=NC1O (stereo unspecified)
**Result** condition met

----------
# Tested on: human maximum recommended daily dose, FDA database
# ASSAY SUMMARY: DSSTox (FDAMDD) FDA Maximum (Recommended) Daily Dose Database
# SETUP CONDITIONS: TherapeuticCategory: bronchodilator; tocolytic; hits give low values
Task for the reader: assign each of the following compounds its reported maximum recommended daily dose (mmol/kg-bw/day).
# output: bare number, no unit

**Query** Report maximum recommended daily dose (mmol/kg-bw/day) for CC(Cc1ccc(O)cc1)NCC(O)c1cc(O)cc(O)c1 (stereo not drawn) tested on human maximum recommended daily dose, FDA database.
**Result** 8.8e-05

**Query** Let us now turn to CC(C)(C)NCC(O)c1ccc(O)c(CO)c1 (stereo not drawn)
**Result** 0.00223

**Query** Let us now turn to CC(C)(C)NCC(O)c1cc(O)cc(O)c1 (stereo not drawn)
**Result** 0.00111

----------
# System: human maximum recommended daily dose, FDA database
# ASSAY SUMMARY: DSSTox (FDAMDD) FDA Maximum (Recommended) Daily Dose Database
# SETUP CONDITIONS: TherapeuticCategory: sedative; hypnotic; hits give low values
METRIC NAME: maximum recommended daily dose (mmol/kg-bw/day)
# output: bare number, no unit

**Query** For the compound shown here, `C=CCC1(CC(C)C)C(=O)NC(=O)NC1=O` , give the reported maximum recommended daily dose (mmol/kg-bw/day).
**Result** 0.0223

**Query** Let us now turn to O=C1C(O)N=C(c2ccccc2F)c2cc(Cl)ccc2N1CCO (stereo not drawn)
**Result** 0.000955

**Query** Let us now turn to CCC(C)C1(CC)C(=O)NC(=O)NC1=O (stereo not drawn)
**Result** 0.00942

**Query** Let us now turn to CC1OC(C)OC(C)O1 (stereo not drawn)
**Result** 1.89

**Query** Let us now turn to Cc1cc(=O)n(-c2ccccc2)n1C (tested in a mixture with another compound)
**Result** 0.0626

**Query** Let us now turn to `C=CCC1(CC=C)C(=O)NC(=O)NC1=O`
**Result** 0.016

**Query** Let us now turn to `Clc1ccc2c(c1)C(c1ccccc1)=NCc1nncn1-2`
**Result** 0.000113

**Query** Let us now turn to CCC1(c2ccccc2)CCC(=O)NC1=O (stereo not drawn)
**Result** 0.0383

**Query** Let us now turn to O=C1CCC(N2C(=O)c3ccccc3C2=O)C(=O)N1 (stereo not drawn)
**Result** 0.0258

**Query** Let us now turn to C#CC(O)(/C=C\Cl)CC (stereo not drawn)
**Result** 0.115

**Query** Let us now turn to `CCC1(C2=CCCCC2)C(=O)NC(=O)NC1=O`
**Result** 0.0282

**Query** Let us now turn to `O=P(O)(O)OCC(Cl)(Cl)Cl`
**Result** 0.145

**Query** Let us now turn to `CC/C=C(\C)C1(CC)C(=O)NC(=O)NC1=O`
**Result** 0.0148

----------
# Test system: human maximum recommended daily dose, FDA database
# ASSAY SUMMARY: DSSTox (FDAMDD) FDA Maximum (Recommended) Daily Dose Database
# SETUP CONDITIONS: TherapeuticCategory: antixerophthalmic vitamin; hits give low values
METRIC NAME: maximum recommended daily dose (mmol/kg-bw/day)
# output: bare number, no unit

**Query** Report maximum recommended daily dose (mmol/kg-bw/day) for `CC1=C(/C=C/C(C)=C/C=C/C(C)=C/CO)C(C)(C)CCC1` tested on human maximum recommended daily dose, FDA database.
**Result** 0.0032

----------
# Tested on: human maximum recommended daily dose, FDA database
# ASSAY SUMMARY: DSSTox (FDAMDD) FDA Maximum (Recommended) Daily Dose Database
# SETUP CONDITIONS: TherapeuticCategory: anti inflammatory; hits give low values
Task for the reader: assign each of the following molecules its reported maximum recommended daily dose (mmol/kg-bw/day).
# output: bare number, no unit

**Query** Report maximum recommended daily dose (mmol/kg-bw/day) for CC(C(=O)O)c1ccc2c(c1)Cc1cccnc1O2 (stereo unspecified) tested on human maximum recommended daily dose, FDA database.
**Result** 0.0147

**Query** Let us now turn to `COc1ccc2c(c1)c(CC(=O)OCC(=O)O)c(C)n2C(=O)c1ccc(Cl)cc1`
**Result** 0.00721

**Query** Let us now turn to `O=C(O)Cc1sc(-c2ccccc2)nc1-c1ccc(Cl)cc1`
**Result** 0.0455

**Query** Let us now turn to CCCCC1C(=O)NN(c2ccccc2)C1=O (stereo unspecified)
**Result** 0.0215

**Query** Let us now turn to `O=C(O)CCC(=O)c1ccc(-c2ccccc2)cc1`
**Result** 0.059

**Query** Let us now turn to `CCC[C@@H]1O[C@@H]2C[C@H]3[C@@H]4CCC5=CC(=O)C=C[C@]5(C)[C@H]4[C@@H](O)C[C@]3(C)[C@]2(C(=O)CO)O1`
**Result** 1.01e-05

**Query** Let us now turn to `O=C(O)c1cccnc1Nc1cccc(C(F)(F)F)c1`
**Result** 0.0443

**Query** Let us now turn to `O=C(O)Cc1ccccc1Nc1c(Cl)cccc1Cl`
**Result** 0.0127

**Query** Let us now turn to `O=C(O)CCC(=O)c1ccc(C2CCCCC2)c(Cl)c1`
**Result** 0.0678

**Query** Let us now turn to CC1=C(CC(=O)O)c2cc(F)ccc2/C1=C/c1ccc(S(C)=O)cc1 (stereo unspecified)
**Result** 0.0187

**Query** Let us now turn to CC(C)Cc1ccc(C(C)C(=O)OCc2ccccn2)cc1 (stereo unspecified)
**Result** 0.135

**Query** Let us now turn to `OCCN(CCO)c1nc(-c2ccccc2)c(-c2ccccc2)o1`
**Result** 0.0617

**Query** Let us now turn to `CCCCC1C(=O)N(c2ccccc2)N(c2ccccc2)C1=O`
**Result** 0.0324

**Query** Let us now turn to `Cc1cccc(Nc2ccccc2C(=O)O)c1C`
**Result** 0.0862

**Query** Let us now turn to `CC(C)=CCC1C(=O)N(c2ccccc2)N(c2ccccc2)C1=O`
**Result** 0.039

**Query** Let us now turn to `CN1c2ccccc2Sc2ccc(CC(=O)O)cc21`
**Result** 0.0461

**Query** Let us now turn to CC(C(=O)O)c1ccc(N2CC=CC2)c(Cl)c1 (stereo unspecified)
**Result** 0.0528

**Query** Let us now turn to `CCN(CC)CCc1nc(-c2ccccc2)no1`
**Result** 0.0136

**Query** Let us now turn to CC(C)Cc1ccc(C(C)C(=O)O)cc1 (stereo unspecified)
**Result** 0.194

**Query** Let us now turn to `Cc1ccc2c(-c3ccccc3)nc(=O)n(C(C)C)c2c1`
**Result** 0.0719

**Query** Let us now turn to CC(C(=O)O)c1ccc(C(=O)c2ccccc2)s1 (stereo unspecified)
**Result** 0.0384

These data points were gathered from PubChem BioAssay AID1195.
